Target: EGFR L858R mutant (Homo sapiens (Human), UniProt P00533, L858R)
Sequence (P00533 25-1210 L858R): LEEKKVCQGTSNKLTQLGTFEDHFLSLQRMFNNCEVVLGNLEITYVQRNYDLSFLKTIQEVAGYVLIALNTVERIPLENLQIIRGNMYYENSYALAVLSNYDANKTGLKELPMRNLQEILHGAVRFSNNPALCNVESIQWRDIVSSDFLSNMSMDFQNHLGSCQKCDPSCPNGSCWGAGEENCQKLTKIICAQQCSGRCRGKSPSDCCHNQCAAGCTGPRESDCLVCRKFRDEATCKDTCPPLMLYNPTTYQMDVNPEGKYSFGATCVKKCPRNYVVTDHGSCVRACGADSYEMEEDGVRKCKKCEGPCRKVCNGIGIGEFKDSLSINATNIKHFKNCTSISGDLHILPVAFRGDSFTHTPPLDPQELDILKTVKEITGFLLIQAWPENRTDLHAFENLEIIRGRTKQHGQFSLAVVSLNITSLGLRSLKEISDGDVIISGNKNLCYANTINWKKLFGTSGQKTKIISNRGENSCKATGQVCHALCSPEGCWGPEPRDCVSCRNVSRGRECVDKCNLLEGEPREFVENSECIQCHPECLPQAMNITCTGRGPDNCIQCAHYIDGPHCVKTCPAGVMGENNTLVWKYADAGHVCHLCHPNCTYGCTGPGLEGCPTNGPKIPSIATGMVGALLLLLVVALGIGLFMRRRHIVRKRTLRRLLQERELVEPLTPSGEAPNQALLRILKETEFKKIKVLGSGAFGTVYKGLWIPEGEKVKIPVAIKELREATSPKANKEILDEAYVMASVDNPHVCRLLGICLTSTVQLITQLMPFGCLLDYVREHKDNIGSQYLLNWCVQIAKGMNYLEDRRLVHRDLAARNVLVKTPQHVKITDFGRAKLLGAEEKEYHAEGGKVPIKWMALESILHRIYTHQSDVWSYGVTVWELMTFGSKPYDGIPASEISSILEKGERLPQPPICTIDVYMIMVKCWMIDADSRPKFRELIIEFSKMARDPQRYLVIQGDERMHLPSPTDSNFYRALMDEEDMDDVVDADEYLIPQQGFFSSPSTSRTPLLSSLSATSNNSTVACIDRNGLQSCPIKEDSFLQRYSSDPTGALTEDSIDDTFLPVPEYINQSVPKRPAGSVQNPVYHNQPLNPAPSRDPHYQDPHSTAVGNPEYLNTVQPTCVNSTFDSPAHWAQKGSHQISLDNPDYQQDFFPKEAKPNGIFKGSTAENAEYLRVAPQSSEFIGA
Assay: HotSpot radiometric kinase assay, EGFR L858R mutant
Details: 10 μM ATP
Just a reminder that ties go to condition not met: only IC50 strictly below 9 nM counts as condition met.

In [3]: df
Out[3]:
                           molecular_string  qualitative_label
0  CCOc1nn([C@H](C)CO)c2c1/C=C/c1n[nH]c3ccc(cc13)-c1cnn(C)c1O[C@@H](C)CN(C)C2      condition met
1  C[C@H]1CN(C)Cc2c(c(O[C@H]3CCN(S(C)(=O)=O)C3)nn2CCO)/C=C/c2n[nH]c3ccc(cc23)-c2cnn(C)c2O1  condition not met
2  Cc1nn(C)c2c1/C=C/c1n[nH]c3ccc(cc13)-c1cnn(C)c1OCCN(C)C(=O)CO2  condition not met
3  C[C@@H](C#N)Oc1nn(CCO)c2c1/C=C/c1n[nH]c3cc(F)c(cc13)-c1cnn(C)c1O[C@@H](C)CN(C)C2      condition met
4  CCOc1nn(C)c2c1/C=C/c1n[nH]c3cc(F)c(cc13)-c1cnn(C)c1O[C@@H](C)CN(CC)C2      condition met

Hello, is IC50 of the following compound strictly smaller than 9 nM? CCN1CCOc2c(c(C)nn2C)/C=C/c2n[nH]c3ccc(cc23)-c2cnn(C)c2C1 condition met

# strict comparison: is reported IC50 < 9 nM? input = CCOc1nn(CCO)c2c1/C=C/c1n[nH]c3cc(F)c(cc13)-c1c(C)nn(C)c1O[C@@H](C)CN(C(C)C)C2 condition not met

* * *

// reported IC50 per item
Biological target: CLK2 (Homo sapiens (Human), UniProt P49760)
Sequence (P49760 whole entry): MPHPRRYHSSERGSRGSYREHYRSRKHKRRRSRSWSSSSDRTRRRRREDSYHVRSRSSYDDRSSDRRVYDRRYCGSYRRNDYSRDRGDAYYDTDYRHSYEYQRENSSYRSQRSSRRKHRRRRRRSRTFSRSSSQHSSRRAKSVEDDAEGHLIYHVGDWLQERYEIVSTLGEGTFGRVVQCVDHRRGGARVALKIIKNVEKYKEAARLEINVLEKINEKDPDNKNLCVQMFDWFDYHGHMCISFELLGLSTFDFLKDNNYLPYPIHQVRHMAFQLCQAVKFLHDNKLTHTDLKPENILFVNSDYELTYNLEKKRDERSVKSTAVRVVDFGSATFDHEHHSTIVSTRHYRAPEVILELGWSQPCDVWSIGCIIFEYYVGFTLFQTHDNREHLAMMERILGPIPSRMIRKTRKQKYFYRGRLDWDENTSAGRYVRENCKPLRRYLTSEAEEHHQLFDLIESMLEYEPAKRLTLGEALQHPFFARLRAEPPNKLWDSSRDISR
Express it in nM; write the number only.

Measured IC50, CC(C)Oc1nn(CCO)c2c1/C=C/c1n[nH]c3ccc(cc13)-c1cnn(C)c1O[C@@H](C)CN(C)[C@@H]2C : 0.28

Item: CC(C)Oc1nn(CCO)c2c1/C=C/c1n[nH]c3ccc(cc13)-c1cnn(C)c1OCC(CF)N(C)C2 (stereo not shown) | IC50: 0.99

Record C#Cc1nn(C)c2c1-c1ccc3[nH]nc(c3c1)/C=C/c1c(OCC)nn(CCO)c1CN(C)C[C@H](C)O2 . Reported IC50: 4.87

IC50 reported for this compound CSCn1ncc2c1O[C@@H](C)CN(C(C)C)Cc1c(c(C)nn1C)/C=C/c1n[nH]c3ccc-2cc13 : 0.75

* * *

// values below are reported IC50
Molecular target: EGFR Δ746-750 mutant (Homo sapiens (Human), UniProt P00533, DEL746-750)
Sequence (P00533 other isoform, or with tags, fused parts or gaps del 1-668/del 746-750 limits assumed): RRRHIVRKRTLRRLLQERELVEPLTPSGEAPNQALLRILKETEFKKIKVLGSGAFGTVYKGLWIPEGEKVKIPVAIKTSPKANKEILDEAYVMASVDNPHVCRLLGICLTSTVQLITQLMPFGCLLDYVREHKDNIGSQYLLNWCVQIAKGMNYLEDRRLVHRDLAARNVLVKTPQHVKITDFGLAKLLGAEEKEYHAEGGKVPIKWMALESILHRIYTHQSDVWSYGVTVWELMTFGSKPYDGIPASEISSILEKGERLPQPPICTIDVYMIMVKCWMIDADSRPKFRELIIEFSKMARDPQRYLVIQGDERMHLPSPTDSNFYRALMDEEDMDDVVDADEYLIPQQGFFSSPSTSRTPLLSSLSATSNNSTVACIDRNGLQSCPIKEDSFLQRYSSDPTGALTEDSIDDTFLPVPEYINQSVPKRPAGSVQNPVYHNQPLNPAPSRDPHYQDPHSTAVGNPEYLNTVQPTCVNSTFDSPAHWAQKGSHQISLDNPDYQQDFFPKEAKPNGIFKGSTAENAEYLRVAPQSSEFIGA
Test: HotSpot radiometric kinase assay, EGFR Δ746-750 mutant
Details: 10 μM ATP
Numbers only here, please. The scale is nM.

In [3]: df
Out[3]:
                                   compound                           subject_of_test  measured_parameter  value
0  CCn1ncc2c1O[C@@H](C)CN(C)Cc1c(c(OC(C)C)nn1CCO)/C=C/c1n[nH]c3ccc-2cc13  EGFR Δ746-750 mutant (Homo sapiens (Human), UniProt P00533, DEL746-750)                IC50   3.24
1  CCc1nn(C)c2c1/C=C/c1n[nH]c3ccc(cc13)-c1cnn(C)c1CN(C)CCO2  EGFR Δ746-750 mutant (Homo sapiens (Human), UniProt P00533, DEL746-750)                IC50   14.4
2  Cc1c2c(nn1CC(C)(C)O)OCCCOc1c(cnn1C)-c1ccc3[nH]nc(c3c1)/C=C/2  EGFR Δ746-750 mutant (Homo sapiens (Human), UniProt P00533, DEL746-750)                IC50    819
3  CC(C)Oc1nn(CCO)c2c1/C=C/c1n[nH]c3ccc(cc13)-c1cnn(C)c1O[C@@H](C)C(=O)N(C)C2  EGFR Δ746-750 mutant (Homo sapiens (Human), UniProt P00533, DEL746-750)                IC50    398
4  CCOc1nn(CCO)c2c1/C=C/c1n[nH]c3ccc(cc13)-c1cnn(C)c1O[C@H](C)[C@H]1CCCN1C2 (single isomer, unassigned)  EGFR Δ746-750 mutant (Homo sapiens (Human), UniProt P00533, DEL746-750)                IC50   0.13

Continue with the next compound.
IC50 for Cc1nn(C2CCN(C)C2)c2c1/C=C/c1n[nH]c3ccc(cc13)-c1cnn(C)c1CN(C)CCO2 (centres unmarked) is 21.1

* * *

Parameter IC50, tested on EGFR WT (Homo sapiens (Human)), listed per item.
Sequence (P00533 25-1210): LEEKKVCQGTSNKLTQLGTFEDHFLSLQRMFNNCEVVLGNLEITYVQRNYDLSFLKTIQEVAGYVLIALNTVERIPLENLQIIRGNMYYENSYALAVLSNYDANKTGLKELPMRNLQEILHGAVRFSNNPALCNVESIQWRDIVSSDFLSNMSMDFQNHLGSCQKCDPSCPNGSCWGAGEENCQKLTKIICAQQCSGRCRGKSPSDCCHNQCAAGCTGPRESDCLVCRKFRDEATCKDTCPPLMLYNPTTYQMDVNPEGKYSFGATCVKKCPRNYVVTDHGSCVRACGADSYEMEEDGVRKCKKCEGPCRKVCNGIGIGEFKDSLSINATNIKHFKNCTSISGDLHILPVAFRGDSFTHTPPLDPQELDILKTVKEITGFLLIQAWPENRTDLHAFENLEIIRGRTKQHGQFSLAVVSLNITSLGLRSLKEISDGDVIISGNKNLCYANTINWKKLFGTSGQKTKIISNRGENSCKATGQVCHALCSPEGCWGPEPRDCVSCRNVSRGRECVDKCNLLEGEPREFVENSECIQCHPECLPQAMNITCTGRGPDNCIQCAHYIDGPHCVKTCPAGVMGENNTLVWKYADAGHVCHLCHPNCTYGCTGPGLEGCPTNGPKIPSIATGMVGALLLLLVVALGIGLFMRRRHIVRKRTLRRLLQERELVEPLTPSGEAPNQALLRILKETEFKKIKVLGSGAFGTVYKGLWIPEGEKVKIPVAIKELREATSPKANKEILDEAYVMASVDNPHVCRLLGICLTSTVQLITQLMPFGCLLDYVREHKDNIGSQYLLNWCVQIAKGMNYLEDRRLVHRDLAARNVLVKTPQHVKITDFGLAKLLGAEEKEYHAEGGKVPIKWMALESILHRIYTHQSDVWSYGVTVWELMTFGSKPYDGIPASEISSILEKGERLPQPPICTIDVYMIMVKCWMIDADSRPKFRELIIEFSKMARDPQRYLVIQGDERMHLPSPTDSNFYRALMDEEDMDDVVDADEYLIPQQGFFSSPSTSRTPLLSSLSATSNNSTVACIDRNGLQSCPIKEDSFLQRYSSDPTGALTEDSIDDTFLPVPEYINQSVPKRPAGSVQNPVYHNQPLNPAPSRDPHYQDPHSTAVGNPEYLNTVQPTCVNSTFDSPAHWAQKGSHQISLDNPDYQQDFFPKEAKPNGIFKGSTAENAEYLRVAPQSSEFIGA

Worked cases, answers included:
>>> print(df.to_string())
                                   compound  measured_parameter     value
0  Cc1nn(C)c2c1/C=C/c1n[nH]c3ccc(cc13)-c1cnn(C)c1O[C@H]1CCCN(C2)C1 [Example 176]                IC50  0.152 µM
1  Cc1c2c(nn1CCN1CCCC1)OCCCOc1c(cnn1C)-c1ccc3[nH]nc(c3c1)/C=C/2 [Example 34]                IC50  0.326 µM

Item CC(C)Oc1nn(CCO)c2c1/C=C/c1n[nH]c3ccc(cc13)-c1cnn(C)c1OCC(CF)N(C)C2 (stereo not shown) [Example 226] was tested on EGFR WT (Homo sapiens (Human)); the reported IC50 is 0.121 µM

Param item: Cc1onc2c1/C=C/c1n[nH]c3ccc(cc13)-c1cnn(C)c1O[C@@H](C)CN(C)C2 [Example 134] ; param system: EGFR WT (Homo sapiens (Human)); output IC50: 1.21 µM

* * *

Known pIC50 of a selection of molecules
Molecular target: EGFR Δ746-750 mutant (Homo sapiens (Human), UniProt P00533, DEL746-750)
Assay: HotSpot radiometric kinase assay, EGFR Δ746-750 mutant
Details: 10 μM ATP
In textbook form, pIC50 equals minus log to base ten of the concentration in mol/L.

Example entries and their recorded answers appear below.
>>> print(df.to_string())
                                   molecule  measured_parameter  value
0  C[C@H]1CN(C)Cc2nn3c(c2/C=C/c2n[nH]c4ccc(cc24)-c2cnn(C)c2O1)CN(CCS(C)(=O)=O)CC3               pIC50   7.82
1  Cc1nn([C@H]2CNC[C@@H]2O)c2c1/C=C/c1n[nH]c3ccc(cc13)-c1cnn(C)c1OCCCO2 (racemic)               pIC50   7.13

Attention now shifts to the item below.
Looking up CCc1noc2c1/C=C/c1n[nH]c3ccc(cc13)-c1cnn(C)c1O[C@@H](C)CN(C)C2 , I see its pIC50 listed as 6.88

* * *

This listing pairs compounds with measured IC50.
Molecular target: EGFR Δ746-750 mutant (Homo sapiens (Human), UniProt P00533, DEL746-750)
Assay: HotSpot radiometric kinase assay, EGFR Δ746-750 mutant
Type: biochemical
Settings: 10 μM ATP
Give your result in nM as a bare value.

Use the examples below as a reference point.
>>> print(df.to_string())
                                   compound  value
0  CCOc1nn([C@@H](C)CO)c2c1/C=C/c1n[nH]c3cc(F)c(cc13)-c1cnn(C)c1O[C@@H](C)CN(CC)C2 [Example 215]   0.69
1  Cc1c2c(nn1CCN1CCCC1)OCCOC(C)c1c(cnn1C)-c1ccc3[nH]nc(c3c1)/C=C/2 (centres unmarked) [Example 84]    381
2  Cc1c2c(nn1CCO)CNC[C@H](C)Oc1c(cnn1C)-c1ccc3[nH]nc(c3c1)/C=C/2 [Example 49]    617
3  CC(C)Oc1nn(CCO)c2c1/C=C/c1n[nH]c3ccc(cc13)-c1cnn(C)c1O[C@H](C)CN(C1CC1)C2 [Example 212]   16.9
4  Cc1ccc2c(n1)/C=C/c1n[nH]c3ccc(cc13)-c1cnn(C)c1O[C@@H](C)CCO2 [Ex. 39]    176

Short answer for CC(C)Oc1nn(CCO)c2c1/C=C/c1n[nH]c3ccc(cc13)-c1cnn(C)c1OCC(CF)N(C)C2 (centres unmarked) [Example 226] : IC50 was 8.98

Entry Cc1nn(C)c2c1/C=C/c1n[nH]c3ccc(cc13)-c1cnn(C)c1CN(C)C[C@H](C)O2 (single isomer, unassigned) [Example 97] ; IC50 = 221

IC50 reported for this compound Cc1nn([C@H]2CN(C)C[C@@H]2O)c2c1/C=C/c1n[nH]c3ccc(cc13)-c1cnn(C)c1OCCCO2 (racemic) [Example 75] : 59.7

Measured IC50 of CCN1Cc2c(c(OC(C)C)nn2CC(N)=O)/C=C/c2n[nH]c3ccc(cc23)-c2cnn(C)c2O[C@@H](C)C1 [Example 232] : 0.08

Quick note, IC50 for CC(C)Oc1nn(CCO)c2c1/C=C/c1n[nH]c3cc(F)c(cc13)-c1cnn(C)c1O[C@H](C)CN(C(C)C)C2 [Example 195] landed at 18.6

Entry Cc1c2c(nn1CCC(C)O)CN(C)C[C@H](C)Oc1c(cnn1C)-c1ccc3[nH]nc(c3c1)/C=C/2 (some centres unmarked) [Example 95] , IC50 reported as 121

IC50 measured on Cc1nn(C)c2c1/C=C/c1n[nH]c3ccc(cc13)-c1c(C)nn(C)c1OCCN(C)C2 [Example 47] = 488

// IC50 lookup, compound = CCN1CCOc2c(c(C)nn2C)/C=C/c2n[nH]c3ccc(cc23)-c2cnn(C)c2C1 [Example 111] , result: 3.29

IC50 reading for CCN1Cc2c(c(OC(C)C)nn2CC(C)=O)/C=C/c2n[nH]c3ccc(cc23)-c2cnn(C)c2O[C@@H](C)C1 [Example 263] : 1.28
